// data source = patent US20130131075A1

- Experimental system: cynomolgus BK1-receptor (Macaca fascicularis, UniProt Q3BCU0)
- Construct: expressed in transfected cells; host or cells: CHO cells (homogenate)
- Sequence (Q3BCU0 whole entry): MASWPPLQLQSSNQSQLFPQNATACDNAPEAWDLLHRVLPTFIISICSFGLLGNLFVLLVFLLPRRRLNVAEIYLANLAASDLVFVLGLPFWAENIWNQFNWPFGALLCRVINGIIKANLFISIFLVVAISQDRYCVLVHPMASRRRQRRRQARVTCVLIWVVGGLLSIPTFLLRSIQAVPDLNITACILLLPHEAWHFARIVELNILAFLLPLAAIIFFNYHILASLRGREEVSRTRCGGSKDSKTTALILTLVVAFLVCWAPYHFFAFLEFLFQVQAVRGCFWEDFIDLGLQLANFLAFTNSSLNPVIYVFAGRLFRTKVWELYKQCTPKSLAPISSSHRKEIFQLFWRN
- Experiment description: cynoBK1-receptor binding assay
- Assay conditions: at 10 μgmol/L; CHO cells expressing cynomolgus BK1-receptor, radioligand kallidine (DesArg10,Leu9)
Reported metric: inhibition at 10 µM (%)

Query block: # query: inhibition at 10 µM of entry `O=C(NC1(C(=O)NCc2ncc(Nc3c(F)cccc3C(F)(F)F)cc2F)CC1)c1ccnc(O)c1`
Result block: 101

Query block: Which measured inhibition at 10 µM value corresponds to `Cn1ccc(C(=O)NC2(C(=O)NCc3ccc(Nc4ccc(Cl)cc4C(F)(F)F)cn3)CC2)cc1=O` ?
Result block: 96

Query block: // inhibition at 10 µM lookup, key: `CS(=O)(=O)c1ccc(Nc2ccc(CNC(=O)C3(NC(=O)c4cncnc4)CC3)cc2)c(C(F)(F)F)c1`
Result block: 93

Query block: Which measured inhibition at 10 µM value corresponds to CC(C#N)C(=O)NC1(C(=O)NCc2ccc(Nc3ccc(F)cc3C(F)(F)F)cn2)CC1 (centres unmarked) ?
Result block: 104

Query block: // returns reported inhibition at 10 µM for input `Nc1ccc(C(=O)NC2(C(=O)NCc3ccc(Nc4ccc(Br)cc4C(F)(F)F)cn3)CC2)cn1`
Result block: 105

Query block: I would be grateful if you could share the reported inhibition at 10 µM for CC(NC(=O)C1(NC(=O)c2cncnc2)CC1)c1ccc(Nc2ccc(Cl)cc2C(F)(F)F)cn1 (centres unmarked) .
Result block: 106

Query block: Need inhibition at 10 µM, item `O=C(N[C@@]1(C(=O)NCc2ccc(Nc3ccccc3C(F)(F)F)cc2)CCOC1)c1cnco1`
Result block: 93

Query block: Report inhibition at 10 µM for `Cc1cc(Br)ccc1Nc1ccc(CNC(=O)C2(NC(=O)c3cncnc3)CC2)nc1` please.
Result block: 101

----------
Ki values recorded for UniProt:Q3BCU0
Reported metric: Ki (nM)

Example cases with answers are listed next.
Query block: Looking for the measured Ki of O=C(N[C@@]1(C(=O)NCc2ncc(Nc3ccc(Cl)cc3C(F)(F)F)cc2F)CCOC1)c1cncnc1 [(242)] , can you help?
Result block: 15

Query block: What does the data say about its Ki? Entry: O=C(N[C@@]1(C(=O)NCc2ccc(Nc3ccc(F)cc3C(F)(F)F)cc2)CCOC1)c1cncs1 [(299)]
Result block: 222

A: O=C(NC1(C(=O)NCc2ccc(Nc3ccc(Cl)cc3Br)cn2)CC1)c1cncnc1 [(167)]
B: Cc1ncc(C(=O)N[C@@]2(C(=O)NCc3ncc(Nc4ccc(F)cc4C(F)(F)F)cc3C)CCOC2)cn1 [(387)]
Query block: # compare Ki for A vs B ; return the one with the smaller value // caller expects the label of the chosen entry
Result block: B

----------
- Experimental system: cynomolgus BK1-receptor (Macaca fascicularis, UniProt Q3BCU0)
- Construct: expressed in transfected cells; host or cells: CHO cells (homogenate)
- Experiment description: cynoBK1-receptor binding assay
- Assay conditions: CHO cells expressing cynomolgus BK1-receptor, radioligand kallidine (DesArg10,Leu9)
Reported metric: Ki (nM)

A: Nc1ccc(C(=O)N[C@@]2(C(=O)NCc3ccc(Nc4ccc(Cl)cc4C(F)(F)F)cc3)CCOC2)cn1
B: CC(NC(=O)C1(NC(=O)c2cncc(N)c2)CC1)c1ccc(Nc2c(F)cccc2C(F)(F)F)cn1 (centres unmarked)
C: O=C(NC1(C(=O)NCc2ccc(Nc3ccc(Cl)cc3C(F)(F)F)cn2)CC1)c1ccnc(O)c1
D: Cc1cc(Nc2ccc(F)cc2C(F)(F)F)cnc1CNC(=O)[C@]1(NC(=O)c2cncnc2)CCOC1
Query block: Quick one: which order do the items above go in by Ki, smallest to largest? Lab note: final answer is the ordered label list.
Result block: D, B, C, A

I: COc1cncc(C(=O)N[C@@]2(C(=O)NCc3ccc(Nc4ccc(Cl)cc4C(F)(F)F)cc3)CCOC2)c1
II: CCNc1ccc(C(=O)NC2(C(=O)NCc3ccc(Nc4ccc(Cl)cc4C(F)(F)F)cn3)CC2)cn1
Query block: Please indicate which has the smaller reported Ki: I , or II . Lab log: write the label of the selected item as the result.
Result block: II

I: CC(NC(=O)C1(NC(=O)c2cncnc2)CC1)c1ccc(Nc2ccc(Cl)cc2C(F)(F)F)cn1 (centres unmarked)
II: N#Cc1cc(Cl)ccc1Nc1ccc(CNC(=O)C2(NC(=O)c3cncnc3)CC2)cc1
Query block: Short answer wanted: higher Ki, I or II ? Respond with the label that goes with your answer.
Result block: II
(II: 17 nM, I: 3.4 nM)
